system_name: T1, human CD1a expressed on cells (human, UniProt P06126 17-327; P61769 21-119)
T1 construct: also called HEK - CD1a; C1R - CD1a
experiment_summary: flow cytometry, HEK-293 cells, 1 µg/ml antibody
recorded_metric: Fluorescence Intensity Geomean (normalized to background)
Please append the unit to your numeric answer.

Record summary for 77A (VR11851) (antibody, V domains shown, also called OX77a; antibody 77a) VH: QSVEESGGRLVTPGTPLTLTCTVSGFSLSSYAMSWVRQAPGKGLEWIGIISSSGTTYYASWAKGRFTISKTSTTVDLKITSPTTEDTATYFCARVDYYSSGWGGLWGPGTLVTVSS VL: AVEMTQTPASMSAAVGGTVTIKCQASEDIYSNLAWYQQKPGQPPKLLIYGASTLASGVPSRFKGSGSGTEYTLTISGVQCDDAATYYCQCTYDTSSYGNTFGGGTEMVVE : reported Fluorescence Intensity Geomean (normalized to background) = 41.9 fold over background
